// provenance: the RNAGym collection of RNA variant scans (doi:10.7554/elife.90254)

B1: OR4K15 (parent)
chain: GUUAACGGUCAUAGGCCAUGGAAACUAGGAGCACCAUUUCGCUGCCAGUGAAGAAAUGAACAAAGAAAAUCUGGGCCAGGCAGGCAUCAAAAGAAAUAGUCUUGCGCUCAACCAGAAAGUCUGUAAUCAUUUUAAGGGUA

Variants of: B1
Assay: self-cleavage, relative activity (ratio to wild type); higher = more cleavage; in vitro, sequencing; the parent is a self-cleaving ribozyme
Short version: self-cleavage at least 1 is MET, less is NOT MET.

Examples with answers:
{"columns": ["residue.change", "answer.label"],
 "data": [
  ["A54G U72C", "NOT MET"],
  ["U87A U122C", "MET"],
  ["U108C U122C", "NOT MET"],
  ["C42A A69G", "MET"],
  ["A22G A63U", "MET"],
  ["U49G A118G", "MET"]
]}

# check: self-cleavage of A59G G73A is greater than or equal to 1
NOT MET

Quick one: A55G A98C
MET

Quick one: A51C A117U
MET

Quick one: A27G A96U
MET

Quick one: U108C C121U
NOT MET

Quick one: A23G U49C
NOT MET

Quick one: A60U U127A
MET

Quick one: A59G C121A
MET

Quick one: A98U A110G
NOT MET

Quick one: G65A A117G
NOT MET
